// values below are reported % Kill, SK-N-AS
System: SK-N-AS
test.details: MTT cytotoxicity assay (% kill), SK-N-AS
Format: cell-based, human
measurement.parameters: 1.0 μg/mL, 1 h exposure, MTT after five days
Provide only the numeric value, understood in %.

Sample answers from the record:
compound	reported.endpoint	test.value
C=CCOC(=O)O[C@H]1C(=O)O[C@@H]2C[C@H]3C(C)=C(O)C(=O)C[C@]3(C)[C@H]3[C@@H](O)[C@H](O)[C@@]4(C(=O)OC)OC[C@]32[C@@H]14 [15-O-(allyloxycarbonyl)-bruceolide]	% Kill, SK-N-AS	1
COC(=O)[C@@]12OC[C@]34[C@H]([C@@H](O)[C@@H]1O)[C@@]1(C)CC(=O)C(O)=C(C)[C@@H]1C[C@H]3OC(=O)[C@H](OC(=O)CC(C)(C)C)[C@@H]24 [15-O-(3′,3′-dimethylbutanoyl)-bruceolide]	% Kill, SK-N-AS	0
COC(=O)C12OCC34C(CC5C(C)=C(O)C(=O)CC5(C)C3C(O)C1O)OC(=O)C(OC(=O)CC1(O)CCCCC1)C24 (stereo not shown)	% Kill, SK-N-AS	16
COC(=O)C12OCC34C(CC5C(C)=C(O)C(=O)CC5(C)C3C(O)C1O)OC(=O)C(OC(=O)OCC1COC(C)(C)O1)C24 (stereo not shown) [15-O-(solketyloxycarbonyl)-bruceolide]	% Kill, SK-N-AS	0
COC(=O)C12OCC34C(CC5C(C)=C(O)C(=O)CC5(C)C3C(O)C1O)OC(=O)C(OC(=O)C1=CCCC1)C24 (stereo not shown) [15-O-(1′-cyclopentenoyl)-bruceolide]	% Kill, SK-N-AS	0
COC(=O)C12OCC34C(CC5C(C)=C(O)C(=O)CC5(C)C3C(O)C1O)OC(=O)C(OC(=O)C=Cc1ccccc1)C24 (stereo not shown) [15-O-cinnamyl-bruceolide]	% Kill, SK-N-AS	0

Fill in: % Kill, SK-N-AS of COC(=O)[C@@]12OC[C@]34[C@H]([C@@H](O)[C@@H]1O)[C@@]1(C)CC(=O)C(O)=C(C)[C@@H]1C[C@H]3OC(=O)[C@H](OC(=O)C1=CCCCC1)[C@@H]24 [15-O-(1′-cyclohexenoyl)-bruceolide] is ___
0
